# protocol summary: Equilibrium solubility of API in different media
# Format: physicochemical
# test context: pH 5.0 phosphate buffer solution (PBS), aqueous buffer, thermodynamic from solid, pH 5.0 PBS, 37 °C, 200 rpm, n = 3, read-out: Solubility of API, pH 5.0 PBS
measurement label: solubility at 24 h

> print(dat)
                              sample.smiles   measurement.label  assay.value
1  O=C(NC[C@H]1CN(c2ccc(N3CCOCC3=O)cc2)C(=O)O1)c1ccc(Cl)s1  solubility at 24 h   4.85 µg/mL

====

# protocol summary: Equilibrium solubility of API in different media
# Format: physicochemical
# test context: FaSSIF, 37 °C, 200 rpm, n = 3, read-out: Solubility of API, FaSSIF
measurement label: solubility at 24 h (µg/mL)

> print(dat)
                              sample.smiles   measurement.label  reading.unit  assay.value
1  O=C(NC[C@H]1CN(c2ccc(N3CCOCC3=O)cc2)C(=O)O1)c1ccc(Cl)s1  solubility at 24 h         µg/mL         6.17

====

# protocol summary: Equilibrium solubility of API in different media
# Assay type: physicochemical
# test context: pH 6.5 phosphate buffer solution (PBS), pH 6.5 PBS, 37 °C, 200 rpm, n = 3, read-out: Solubility of API, pH 6.5 PBS
measurement label: solubility at 24 h (µg/mL)

> print(dat)
                                   compound  assay.value
1  O=C(NC[C@H]1CN(c2ccc(N3CCOCC3=O)cc2)C(=O)O1)c1ccc(Cl)s1 [Rivaroxaban]         5.85

====

# protocol summary: Equilibrium solubility of API in different media
# Assay type: physicochemical
# test context: FeSSIF, 37 °C, 200 rpm, n = 3, read-out: Solubility of API, FeSSIF
measurement label: solubility at 24 h (µg/mL)

> print(dat)
                                   compound  reading.unit  assay.value
1  O=C(NC[C@H]1CN(c2ccc(N3CCOCC3=O)cc2)C(=O)O1)c1ccc(Cl)s1 [Rivaroxaban]         µg/mL         10.6

All values here come from paper PMC8879660.
